test system: oilseed rape; experiment: Test C preemergence; type: in vivo, Brassica napus; conditions: preemergence, 250 g ai/ha; scale 0 to 100, 0 is no effect, 100 is complete control
Entries and their Oilseed Rape plant response rating values follow.
The reply should be a number, written without any unit.

CCCc1cc(C(=O)NC2CC2)nn1Cc1cc(C(F)(F)F)nn1C [Compound 202] : 100
O=C(NC1CC1)c1cc(CCCl)n(Cc2ccnc(C(F)(F)F)c2)n1 [Compound 144] : 100
CCCNC(=O)c1cc(CCF)n(Cc2ccnc(C(F)(F)F)c2)n1 [Compound 177] : 95
CCNC(=O)c1cc(CC)n(Cc2cc(C(F)(F)F)nn2C)n1 [Compound 154] : 95

As a next step, examine the compound that follows.
Data request: Please tell me the measured Oilseed Rape plant response rating for CCCc1cc(C(=O)NOC(C)C)nn1Cc1cc(C(F)(F)F)nn1C [Compound 203] ; system: oilseed rape.
Data returned: 100

====

system: ragweed; assay: Test C preemergence; assay type: in vivo, Ambrosia elation; conditions: preemergence, 62 g ai/ha; scale 0 to 100 (0 no effect, 100 complete control), 13 to 15 days
Measurement type: Ragweed plant response rating
Write the number on its own, no unit after it.

Here's what some known entries look like.
CCCNC(=O)c1cc(CC)n(Cc2nc(C(F)(F)F)nn2C)n1 : 100
CCc1cc(C(=O)NC2CC2)nn1Cc1ccnc(Br)c1 : 65
CCc1cc(C(=O)NCC(F)(F)F)nn1Cc1cc(C(F)(F)F)nn1C : 95

Let us move to another entry and its Ragweed plant response rating.
Data request: Please give measured Ragweed plant response rating of the following entry: `CCCNC(=O)c1cc(OCC)n(Cc2ccnc(OC(F)F)c2)n1`
Data returned: 75

====

tested on: blackgrass; assay: Test C postemergence; type: in vivo, Alopecurus myosuroides; conditions: postemergence, 250 g ai/ha; scale 0 to 100 (0 no effect, 100 complete control)
Classification field: true (1) = Plant response rating, Blackgrass at or over 30; false (0) = Plant response rating, Blackgrass under 30.

Examples with answers:
CCOc1cc(C(=O)NOC(C)C)nn1Cc1ccnc(C(F)(F)F)c1 : false (0)
CCCNC(=O)c1cc(OCC)n(Cc2ccnc(C(F)(F)F)c2)n1 : true (1)
CCONC(=O)c1cc(CC)n(Cc2cccc(OC(F)(F)F)c2)n1 : true (1)

Now turn to the next molecule.
Data request: Answer whether Plant response rating, Blackgrass of `CCc1cc(C(=O)NCC(F)(F)F)nn1Cc1ccnc(Br)c1` is greater than or equal to 30.
Data returned: false (0)

====

system: crabgrass, large; experiment: Test A preemergence; assay type: in vivo, Digitaria sanguinalis; details: Preemergence, 1000 g ai/ha; 0 to 100 scale, 0 no effect, 100 complete control
Text: […]
Measurement type: Crabgrass, Large plant response rating
Respond numerically, and do not add a unit to the figure.

Please review the entries below; each comes with its answer.
CCCNC(=O)c1cc(CC)n(Cc2cccc(C(F)(F)F)c2)n1 [Compound 16] : 100
CCc1cc(C(=O)NCC(F)(F)F)nn1Cc1cccc(OC(F)(F)F)c1 [Compound 20] : 90
Cc1cc(C(=O)NCC(F)(F)F)nn1Cc1ccnc(C(F)(F)F)c1 [Compound 74] : 100
C#CCNC(=O)c1cc(CC)n(Cc2cccc(OC(F)(F)F)c2)n1 [Compound 54] : 40

Field: next compound
Data request: Retrieve Crabgrass, Large plant response rating on crabgrass, large; query CCc1cc(C(=O)NCC(C)C)nn1Cc1cccc(OC(F)(F)F)c1 [Compound 60]
Data returned: 90
